STUDY TARGET: TcdA (Clostridioides difficile, UniProt P16154)
Sequence (P16154 whole entry, looked up): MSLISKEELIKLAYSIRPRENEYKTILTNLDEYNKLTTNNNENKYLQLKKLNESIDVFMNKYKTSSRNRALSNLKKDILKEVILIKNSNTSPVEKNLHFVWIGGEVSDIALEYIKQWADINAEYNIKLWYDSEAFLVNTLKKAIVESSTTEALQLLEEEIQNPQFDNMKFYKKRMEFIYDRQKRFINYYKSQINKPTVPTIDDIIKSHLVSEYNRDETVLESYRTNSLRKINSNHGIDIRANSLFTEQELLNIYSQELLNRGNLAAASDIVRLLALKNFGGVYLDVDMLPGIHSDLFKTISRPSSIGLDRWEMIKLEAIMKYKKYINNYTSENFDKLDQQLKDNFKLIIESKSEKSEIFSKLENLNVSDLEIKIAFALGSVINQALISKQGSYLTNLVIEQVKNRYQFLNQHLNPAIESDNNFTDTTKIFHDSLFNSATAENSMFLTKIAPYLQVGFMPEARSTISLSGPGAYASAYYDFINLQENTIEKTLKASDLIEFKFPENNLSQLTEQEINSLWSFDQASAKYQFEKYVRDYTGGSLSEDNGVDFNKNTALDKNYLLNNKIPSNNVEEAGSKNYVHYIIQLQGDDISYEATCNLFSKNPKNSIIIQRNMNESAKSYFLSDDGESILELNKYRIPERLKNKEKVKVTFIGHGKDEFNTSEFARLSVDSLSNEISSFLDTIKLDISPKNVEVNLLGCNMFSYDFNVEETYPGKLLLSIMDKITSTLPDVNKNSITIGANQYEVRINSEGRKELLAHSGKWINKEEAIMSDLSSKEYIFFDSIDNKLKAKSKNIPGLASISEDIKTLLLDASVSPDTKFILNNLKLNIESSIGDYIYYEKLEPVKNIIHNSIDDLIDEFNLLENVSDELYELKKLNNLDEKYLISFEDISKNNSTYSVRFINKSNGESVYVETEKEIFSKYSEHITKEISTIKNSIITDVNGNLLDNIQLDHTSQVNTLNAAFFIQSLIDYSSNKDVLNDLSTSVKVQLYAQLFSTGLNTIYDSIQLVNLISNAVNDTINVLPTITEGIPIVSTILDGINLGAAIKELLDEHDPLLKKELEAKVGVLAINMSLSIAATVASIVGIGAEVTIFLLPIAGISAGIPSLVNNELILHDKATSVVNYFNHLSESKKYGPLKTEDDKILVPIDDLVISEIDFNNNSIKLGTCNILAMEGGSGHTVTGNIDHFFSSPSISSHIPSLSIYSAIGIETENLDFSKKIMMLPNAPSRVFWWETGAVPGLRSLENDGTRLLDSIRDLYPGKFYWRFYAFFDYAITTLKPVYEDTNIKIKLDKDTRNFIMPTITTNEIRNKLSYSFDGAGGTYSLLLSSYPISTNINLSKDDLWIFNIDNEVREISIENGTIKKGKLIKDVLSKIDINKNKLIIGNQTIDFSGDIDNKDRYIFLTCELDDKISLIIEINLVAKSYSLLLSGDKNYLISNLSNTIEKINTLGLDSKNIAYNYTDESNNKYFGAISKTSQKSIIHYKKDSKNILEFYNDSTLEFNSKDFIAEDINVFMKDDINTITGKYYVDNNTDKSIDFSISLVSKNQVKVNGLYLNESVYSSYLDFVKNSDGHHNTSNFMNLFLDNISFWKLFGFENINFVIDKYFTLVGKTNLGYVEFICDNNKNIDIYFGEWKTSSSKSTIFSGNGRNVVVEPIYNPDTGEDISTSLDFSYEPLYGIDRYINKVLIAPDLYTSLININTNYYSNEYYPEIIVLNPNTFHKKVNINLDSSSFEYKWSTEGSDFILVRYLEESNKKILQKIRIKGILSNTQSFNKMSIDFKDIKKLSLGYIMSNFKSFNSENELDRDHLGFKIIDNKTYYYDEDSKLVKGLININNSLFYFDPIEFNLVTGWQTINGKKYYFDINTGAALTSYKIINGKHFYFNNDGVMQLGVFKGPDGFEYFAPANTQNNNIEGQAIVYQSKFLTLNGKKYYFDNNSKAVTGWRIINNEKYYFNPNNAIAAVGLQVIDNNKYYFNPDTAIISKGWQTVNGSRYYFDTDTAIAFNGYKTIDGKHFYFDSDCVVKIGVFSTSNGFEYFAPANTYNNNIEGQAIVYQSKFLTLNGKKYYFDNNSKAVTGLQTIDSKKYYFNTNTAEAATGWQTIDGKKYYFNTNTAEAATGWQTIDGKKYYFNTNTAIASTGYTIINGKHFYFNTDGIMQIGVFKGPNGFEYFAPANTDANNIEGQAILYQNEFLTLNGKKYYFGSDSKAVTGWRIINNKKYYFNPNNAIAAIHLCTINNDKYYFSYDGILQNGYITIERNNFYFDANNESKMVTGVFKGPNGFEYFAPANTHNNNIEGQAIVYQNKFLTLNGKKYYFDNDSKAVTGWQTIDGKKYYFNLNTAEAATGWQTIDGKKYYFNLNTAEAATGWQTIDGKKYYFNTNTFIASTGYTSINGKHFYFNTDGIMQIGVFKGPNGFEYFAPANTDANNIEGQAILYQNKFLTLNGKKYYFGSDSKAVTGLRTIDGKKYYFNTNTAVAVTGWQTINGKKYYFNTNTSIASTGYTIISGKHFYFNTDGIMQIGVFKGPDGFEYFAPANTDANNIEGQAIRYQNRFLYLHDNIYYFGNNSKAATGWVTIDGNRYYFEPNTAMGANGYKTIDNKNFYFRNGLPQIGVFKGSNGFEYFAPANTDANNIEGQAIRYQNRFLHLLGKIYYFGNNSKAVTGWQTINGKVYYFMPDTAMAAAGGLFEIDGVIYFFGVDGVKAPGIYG
pIC50: −log10 of the molar value.
PROPERTY LABEL: pIC50

1) N[C@@H](CCC(=O)N[C@@H](CSN=O)C(=O)NCC(=O)O)C(=O)O : 4.24
